Recorded hERG current change (%, negative = inhibition) at 10uM values for a group of compounds are listed next.
study_system: human ether-à-go-go-related gene (hERG) potassium channel (human);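 also: peak tail current of the secondary pulse compared with the same well before compound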
experiment_description: primary screen, population patch clamp on CHO cells stably expressing hERG; higher = less effect of the substance
Among all 310,000 compounds or so, about 14,000 (4.5%) showed an effect of 50% or more. Effects have a minus sign here. What follows is part of a selection rich in strong results, with near analogues and random picks from the rest.
Report only the number, with the unit % understood.

In: Kindly indicate its recorded hERG current change (%, negative = inhibition) at 10uM. Item: Cn1ncnc2c(=O)n(C)c(=O)nc1-2
Out: -2.67

***
In: Kindly indicate its recorded hERG current change (%, negative = inhibition) at 10uM. Item: Cc1ccc(N(CC(=O)NCCSCc2ccco2)S(=O)(=O)c2ccc(C)cc2)cc1
Out: -69.7

In: Kindly indicate its recorded hERG current change (%, negative = inhibition) at 10uM. Item: CC1C(=O)N(Cc2ccccc2F)c2ccccc2N1C(=O)c1c(F)cccc1F (stereo not drawn)
Out: -6.04

In: Kindly indicate its recorded hERG current change (%, negative = inhibition) at 10uM. Item: COc1ccc(OC)c(N(CC(=O)NCCSCc2ccco2)S(=O)(=O)c2ccccc2)c1
Out: -69.2

In: Kindly indicate its recorded hERG current change (%, negative = inhibition) at 10uM. Item: COc1ccc(Cl)cc1N(CC(=O)NC1CC2CCC1C2)S(=O)(=O)c1ccccc1 (stereo not drawn)
Out: -31.5

In: Kindly indicate its recorded hERG current change (%, negative = inhibition) at 10uM. Item: COc1ccccc1N(CC(=O)NCCSCc1ccco1)S(=O)(=O)c1ccccc1
Out: -26.6

----------
study_system: human ether-à-go-go-related gene (hERG) potassium channel (human, UniProt Q12809);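 also: peak tail current of the secondary pulse compared with the same well before compound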
Sequence (Q12809 whole entry, looked up): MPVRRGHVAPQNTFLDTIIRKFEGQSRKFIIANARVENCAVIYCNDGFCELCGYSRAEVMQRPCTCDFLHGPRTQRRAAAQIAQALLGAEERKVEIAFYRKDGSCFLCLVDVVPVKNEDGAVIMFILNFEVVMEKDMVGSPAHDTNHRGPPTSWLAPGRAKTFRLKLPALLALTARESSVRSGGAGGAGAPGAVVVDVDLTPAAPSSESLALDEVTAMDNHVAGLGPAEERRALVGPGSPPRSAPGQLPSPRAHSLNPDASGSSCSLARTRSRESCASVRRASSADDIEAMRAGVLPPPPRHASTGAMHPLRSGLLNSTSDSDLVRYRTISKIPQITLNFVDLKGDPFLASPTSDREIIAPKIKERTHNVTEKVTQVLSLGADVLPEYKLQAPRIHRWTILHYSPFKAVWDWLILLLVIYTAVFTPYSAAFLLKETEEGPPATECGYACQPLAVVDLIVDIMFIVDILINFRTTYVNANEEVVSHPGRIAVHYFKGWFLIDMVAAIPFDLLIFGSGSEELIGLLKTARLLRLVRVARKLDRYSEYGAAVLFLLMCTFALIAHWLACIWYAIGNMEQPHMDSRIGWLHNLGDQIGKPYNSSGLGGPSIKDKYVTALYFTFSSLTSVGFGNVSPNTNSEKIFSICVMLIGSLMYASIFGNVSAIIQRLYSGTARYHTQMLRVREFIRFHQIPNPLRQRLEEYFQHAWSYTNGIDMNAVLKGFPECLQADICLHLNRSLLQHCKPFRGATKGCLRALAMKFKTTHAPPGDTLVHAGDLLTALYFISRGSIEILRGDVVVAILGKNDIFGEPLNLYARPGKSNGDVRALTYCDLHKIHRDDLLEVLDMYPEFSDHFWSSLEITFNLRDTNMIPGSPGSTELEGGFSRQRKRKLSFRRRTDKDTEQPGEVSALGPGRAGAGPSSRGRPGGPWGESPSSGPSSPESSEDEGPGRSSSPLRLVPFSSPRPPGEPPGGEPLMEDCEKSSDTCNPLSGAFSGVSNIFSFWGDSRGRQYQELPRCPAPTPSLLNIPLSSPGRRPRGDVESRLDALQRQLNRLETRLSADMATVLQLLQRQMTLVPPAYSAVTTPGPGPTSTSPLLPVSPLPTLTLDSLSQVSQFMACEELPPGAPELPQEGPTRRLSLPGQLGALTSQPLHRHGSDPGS
experiment_description: primary screen, population patch clamp on CHO cells stably expressing hERG; higher = less effect of the substance
About 14,000 (4.5%) of roughly 310,000 compounds showed an effect of 50% or more. Effects have a minus sign here. The full list was thinned out, with strong results kept by preference.
recorded_metric: hERG current change (%, negative = inhibition) at 10uM (%)
Report only the number, with the unit % understood.

Sample records with hERG current change (%, negative = inhibition) at 10uM:
In: Kindly indicate its recorded hERG current change (%, negative = inhibition) at 10uM. Item: Cc1nc(N2CCN(Cc3ccccc3)CC2)nc2c1C(=O)CC(C)C2 (stereo not drawn)
Out: -5.32

In: Kindly indicate its recorded hERG current change (%, negative = inhibition) at 10uM. Item: N#Cc1nc(-c2ccco2)oc1N1CCCC1
Out: -11.1

In: Kindly indicate its recorded hERG current change (%, negative = inhibition) at 10uM. Item: Cc1ccc(Cl)cc1NC(=O)COC(=O)C1CCCC1
Out: -75.8

In: Kindly indicate its recorded hERG current change (%, negative = inhibition) at 10uM. Item: Cc1[nH]c2ccc(C(=O)N3CCN(c4ccccn4)CC3)cc2c1C
Out: -2.92

***
In: Kindly indicate its recorded hERG current change (%, negative = inhibition) at 10uM. Item: CC[n+]1c(/C=C/N(C)c2ccccc2)n(-c2ccccc2)c2ccc(-c3nc4ccccc4s3)cc21.[I-]
Out: -81.1

In: Kindly indicate its recorded hERG current change (%, negative = inhibition) at 10uM. Item: Cc1ccc(F)cc1NC(=O)N1CCN(c2ccnc3cc(Cl)ccc23)CC1
Out: -67

In: Kindly indicate its recorded hERG current change (%, negative = inhibition) at 10uM. Item: CCCc1cc(N2CCCC(C(=O)Nc3c(OC)cccc3OC)C2)n2ncnc2n1 (stereo not drawn)
Out: -10.7

In: Kindly indicate its recorded hERG current change (%, negative = inhibition) at 10uM. Item: c1ccc(CCN2CN=C(Nc3nc4ccccc4s3)NC2)cc1
Out: -1.49

In: Kindly indicate its recorded hERG current change (%, negative = inhibition) at 10uM. Item: O=c1[nH]cnc2c1c(-c1ccccc1)cn2-c1ccccc1
Out: 12.1

In: Kindly indicate its recorded hERG current change (%, negative = inhibition) at 10uM. Item: COc1ccc(Cl)cc1NC(=O)COC(=O)C1CC1
Out: -0.403

In: Kindly indicate its recorded hERG current change (%, negative = inhibition) at 10uM. Item: COC(=O)c1ccc(N2CCN(C)CC2)c(NC(=O)COc2cccc(C)c2)c1
Out: -18.9

In: Kindly indicate its recorded hERG current change (%, negative = inhibition) at 10uM. Item: Cc1cccc(Cl)c1NC(=O)N1CCN(c2ccnc3cc(Cl)ccc23)CC1
Out: -16.8

In: Kindly indicate its recorded hERG current change (%, negative = inhibition) at 10uM. Item: Cc1cccc(-n2nnc(C(=O)NCc3ccccn3)c2N)c1
Out: 0.598

In: Kindly indicate its recorded hERG current change (%, negative = inhibition) at 10uM. Item: Cc1[nH]n(-c2ccccc2)c(=O)c1-c1ccc(Cl)cc1
Out: 9.3

In: Kindly indicate its recorded hERG current change (%, negative = inhibition) at 10uM. Item: O=C(c1ccc(Br)s1)N1CCCC1
Out: -5.86

In: Kindly indicate its recorded hERG current change (%, negative = inhibition) at 10uM. Item: CCN(CC)S(=O)(=O)c1ccc(N2CCCC2)c(NC(=O)Cc2cc(OC)c(OC)c(OC)c2)c1
Out: -8.43

In: Kindly indicate its recorded hERG current change (%, negative = inhibition) at 10uM. Item: Cc1ccc(Cl)cc1NC(=O)COC(=O)C1CC1
Out: -5.31

In: Kindly indicate its recorded hERG current change (%, negative = inhibition) at 10uM. Item: COc1ccccc1N1CCN(c2ccnc3cc(Cl)ccc23)CC1
Out: -43.4

In: Kindly indicate its recorded hERG current change (%, negative = inhibition) at 10uM. Item: O=C(Nc1cc(F)ccc1F)N1CCN(c2ccnc3cc(Cl)ccc23)CC1
Out: -66.4

In: Kindly indicate its recorded hERG current change (%, negative = inhibition) at 10uM. Item: Cc1ccc(SCC(=O)N2CCOCC2)cc1
Out: 4.71

In: Kindly indicate its recorded hERG current change (%, negative = inhibition) at 10uM. Item: CCS(=O)(=O)N1CCCC(C(=O)c2ccc(OC)cc2C)C1 (stereo not drawn)
Out: 28.9

In: Kindly indicate its recorded hERG current change (%, negative = inhibition) at 10uM. Item: COc1ccccc1NC(=O)N1CCN(c2ccnc3cc(Cl)ccc23)CC1
Out: -80.5

In: Kindly indicate its recorded hERG current change (%, negative = inhibition) at 10uM. Item: Cc1cc(C)c(NS(=O)(=O)c2ccc3c(c2)NC(=O)C(C)C(=O)N3)c(C)c1 (stereo not drawn)
Out: 2.12

In: Kindly indicate its recorded hERG current change (%, negative = inhibition) at 10uM. Item: CCCCNC(=O)Nc1c(C(=O)OCC)[nH]c2ccccc12
Out: 6.83

In: Kindly indicate its recorded hERG current change (%, negative = inhibition) at 10uM. Item: Cc1ccc(Cl)cc1NC(=O)COC(=O)C1CCCCC1
Out: 7.48
